test system: PXR:RXRa (NR concentration 270 nM, RXRa partner concentration 90 nM); assay: PBM binding z-score (relative to random genomic background probes); higher = stronger binding; sequences stand for … in GC…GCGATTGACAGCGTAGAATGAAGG
observable: PBM binding z-score
// no unit string in output, number only

INSERT INTO results (sequence_record, observed_measurement) VALUES
  ('GATACAGAGTCAAGGCCAGAGTACGCGTATTGAT', -0.285),
  ('CCGCGTAGGTTATGGGGCATTCAGGCAACGGTGA', -0.0775),
  ('TCTTGTAGATCAAGCAGTTTAAGAAAGCCTGAGT', 0.133),
  ('CCGACTGGGGCAGAAAGGTTCCCATACCATCCGG', -0.725);

Query string: Specify the recorded PBM binding z-score for CGTCAACGTTCAAGGTAACGTAACAGAAAGCAGC , system: PXR:RXRa (NR concentration 270 nM, RXRa partner concentration 90 nM).
Result string: -0.292

Query string: Specify the recorded PBM binding z-score for TGAATGAGGTTAGAAGATCAGGGAACGTTGCAAA , system: PXR:RXRa (NR concentration 270 nM, RXRa partner concentration 90 nM).
Result string: 0.145

###

tested on: THRa homodimer (NR concentration 90 nM); test: PBM binding z-score (relative to random genomic background probes); higher = stronger binding; sequences stand for … in GC…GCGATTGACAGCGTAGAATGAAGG
Could you label it 1.0 if measured PBM binding z-score is 0.8 or higher, and 0.0 otherwise?

INSERT INTO results (sequence_record, class_label) VALUES
  ('GCTATTCGTTGAAAGGGCAACCGAATGATTCTCG', 0.0),
  ('CCAGACAGGTGAGAAGGTAACTCTGCCTCGATTA', 0.0),
  ('TAGCCTAGGTCATTCAGGGGCCCGTATAGAAAGC', 1.0);

Now examine the next entry.
Query string: Textbook exercise: given the entry TAGCCTAGGTCATTGGCCAGTATACCACGCGAAC , state whether its PBM binding z-score is greater than or equal to 0.8.
Result string: 1.0

###

system: PPARg:RXRa 30nM:10nM, anti-RXR (NR concentration 30 nM, RXRa partner concentration 10 nM); experiment: PBM binding z-score (relative to random genomic background probes); higher = stronger binding; sequences stand for … in GC…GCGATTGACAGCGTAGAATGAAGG
Categories are assigned from the measured PBM binding z-score using these intervals: one (below 0.3), two (0.3 to below 1), three (1 or more)

Observe how each entry below is paired with its result.
INSERT INTO assay_data (sequence_record, tested_target, class_label) VALUES
  ('CCGACTGGGGCATAAGGTTACCAAAAGCCAGCCC', 'PPARg:RXRa 30nM:10nM, anti-RXR (NR concentration 30 nM, RXRa partner concentration 10 nM)', 'two'),
  ('TCTTGTAGATCAGCAGGATAAGAAAGCTGGCCAA', 'PPARg:RXRa 30nM:10nM, anti-RXR (NR concentration 30 nM, RXRa partner concentration 10 nM)', 'three'),
  ('GCTTGTAAATCAAGGTTAAGAAAGACTAAGCTAA', 'PPARg:RXRa 30nM:10nM, anti-RXR (NR concentration 30 nM, RXRa partner concentration 10 nM)', 'one');

Query string: Exam item: assign TCGCGTAGGTTACCAATGGGGCATTCAGCTTTCT to the correct category.
Result string: three

Query string: Exam item: assign ACTAGATGGTCAGCTGAGGTCACACACAATTCGG to the correct category.
Result string: two
